stated_conditions: 318.15 K; 98 kPa; Liquid; Vibrating tube method
± gives the expanded uncertainty stated by the source.
I'd appreciate it if you could supply mass density values for the items below.
Respond with a number, then the unit of measure.

Lookup result for CCCO ; measured mass density: 783.18 ± 0.81 kg/m3

Lookup result for CO ; measured mass density: 767.71 ± 0.81 kg/m3

Lookup result for CC(C)O ; measured mass density: 763.3 ± 0.81 kg/m3

Lookup result for Cn1ccnc1 ; measured mass density: 1012.76 ± 0.83 kg/m3

Lookup result for CCO ; measured mass density: 767.68 ± 0.81 kg/m3

---

stated_conditions: 288.15 K; 98 kPa; Liquid; Frequency=3 MHz; Single path-length method
I'd appreciate it if you could supply speed of sound values for the items below.
Write the answer as a number in m/s, unit excluded.

Lookup result for CCCO ; measured speed of sound: 1239.5

Lookup result for CCO ; measured speed of sound: 1176.9

Lookup result for CO ; measured speed of sound: 1135.7

Lookup result for CC(C)O ; measured speed of sound: 1173.2

Lookup result for Cn1ccnc1 ; measured speed of sound: 1634.1

From: the NIST ThermoML archive (doi:10.1016/j.jct.2018.12.019)
